# Lookup of reported IC50 of pseudo virus neutralization H3N2 WN/05 keyed by entry
Target: cell surface-expressed H3N2 WN/05 HA trimer (influenza A virus A/Wisconsin/67/2005 (H3N2))
Experiment: cell-based or functional assay

binder="P47 (antibody, V domains shown) VH: EVQLVESGGGLVQPGGSLRLSCAASGFTIGNSGIHWVRQAPGKGLEWVASIWPSGGSTYYADSVKGRFTISADTSKNTAYLQMNSLRAEDTAVYYCARFGHIDGDIMDYWGQGTLVTVSS VL: DIQMTQSPSSLSASVGDRVTITCRASQDVYYYVAWYQQKPGKAPKLLISGSSYLYSGVPSRFSGSGSGTDFTLTISSLQPEDFATYYCQQYYNWPLTFGQGTKVEIKR" val="> 20 µg/mL"

Any idea what its IC50 of pseudo virus neutralization H3N2 WN/05 is? The binder is S29 (antibody, V domains shown) VH: EVQLVESGGGLVQPGGSLRLSCAASGFTISDYWIHWVRQAPGKGLEWVASIWPSGGYTYYADSVKGRFTISADTSKNTAYLQMNSLRAEDTAVYYCARFNWIVGHYMDYWGQGTLVTVSS VL: DIQMTQSPSSLSASVGDRVTITCRASQDVFGGVAWYQQKPGKAPKLLIYWSSWLYSGVPSRFSGSGSGTDFTLTISSLQPEDFATYYCQQYYDGPITFGQGTKVEIKR
> 20 µg/mL

Any idea what its IC50 of pseudo virus neutralization H3N2 WN/05 is? The binder is P03 (antibody, V domains shown) VH: EVQLVESGGGLVQPGGSLRLSCAASGFTIDSFGIHWVRQAPGKGLEWVAFIGPFGGSTFYADSVKGRFTISADTSKNTAYLQMNSLRAEDTAVYYCARFDSNSYSYHGIMDYWGQGTLVTVSS VL: DIQMTQSPSSLSASVGDRVTITCRASQDVWGYVAWYQQKPGKAPKLLISWSGSLYSGVPSRFSGSGSGTDFTLTISSLQPEDFATYYCQQYYNWPVTFGQGTKVEIKR
> 20 µg/mL
